- measured_target: Cytochrome P450 1A2 (Homo sapiens)
- Sequence (P05177 whole entry): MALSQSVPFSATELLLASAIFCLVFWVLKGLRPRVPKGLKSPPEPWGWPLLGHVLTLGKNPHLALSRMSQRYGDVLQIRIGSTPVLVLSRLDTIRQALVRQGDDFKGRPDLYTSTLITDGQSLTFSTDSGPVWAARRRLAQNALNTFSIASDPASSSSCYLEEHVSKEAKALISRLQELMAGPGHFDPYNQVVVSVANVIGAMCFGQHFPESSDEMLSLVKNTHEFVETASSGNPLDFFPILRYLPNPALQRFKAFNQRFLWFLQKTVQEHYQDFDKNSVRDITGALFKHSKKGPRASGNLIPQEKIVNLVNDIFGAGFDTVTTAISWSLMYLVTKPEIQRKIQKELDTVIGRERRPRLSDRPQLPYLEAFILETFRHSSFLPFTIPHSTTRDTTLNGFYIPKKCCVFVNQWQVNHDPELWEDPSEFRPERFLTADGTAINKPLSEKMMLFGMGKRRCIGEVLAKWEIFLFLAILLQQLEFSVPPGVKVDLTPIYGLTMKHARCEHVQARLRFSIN
- assay_name: Inhibition of recombinant human CYP1A2 using 7-ethoxyresorufin as substrate after 50 mins in presence of NADP+ by EROD assay
measurement_kind: IC50

- given_smiles: "COc1ccc(OC)c2c1c(OC)cc1c(=O)cc(-c3cccnc3N)oc12"
  measured_target: "Cytochrome P450 1A2 (Homo sapiens)"
  readout_value: "> 1 µM"

// query Identify the reported IC50 for the following entry. "COc1ccc(OC)c2c1c(OC)cc1c(=O)cc(-c3cccc(N4CCN(C)CC4)c3)oc12"
// result > 1 µM

// query Identify the reported IC50 for the following entry. "COc1ccc(OC)c2c1c(OC)cc1c(=O)cc(-c3cccc(O)n3)oc12"
// result > 1 µM

These data points were gathered from ChEMBL document CHEMBL4732065.
